Would you kindly list hERG current change (%, negative = inhibition) at 1uM for each of these compounds?
Target: human ether-à-go-go-related gene (hERG) potassium channel (human, UniProt Q12809)
Sequence (Q12809 whole entry, looked up): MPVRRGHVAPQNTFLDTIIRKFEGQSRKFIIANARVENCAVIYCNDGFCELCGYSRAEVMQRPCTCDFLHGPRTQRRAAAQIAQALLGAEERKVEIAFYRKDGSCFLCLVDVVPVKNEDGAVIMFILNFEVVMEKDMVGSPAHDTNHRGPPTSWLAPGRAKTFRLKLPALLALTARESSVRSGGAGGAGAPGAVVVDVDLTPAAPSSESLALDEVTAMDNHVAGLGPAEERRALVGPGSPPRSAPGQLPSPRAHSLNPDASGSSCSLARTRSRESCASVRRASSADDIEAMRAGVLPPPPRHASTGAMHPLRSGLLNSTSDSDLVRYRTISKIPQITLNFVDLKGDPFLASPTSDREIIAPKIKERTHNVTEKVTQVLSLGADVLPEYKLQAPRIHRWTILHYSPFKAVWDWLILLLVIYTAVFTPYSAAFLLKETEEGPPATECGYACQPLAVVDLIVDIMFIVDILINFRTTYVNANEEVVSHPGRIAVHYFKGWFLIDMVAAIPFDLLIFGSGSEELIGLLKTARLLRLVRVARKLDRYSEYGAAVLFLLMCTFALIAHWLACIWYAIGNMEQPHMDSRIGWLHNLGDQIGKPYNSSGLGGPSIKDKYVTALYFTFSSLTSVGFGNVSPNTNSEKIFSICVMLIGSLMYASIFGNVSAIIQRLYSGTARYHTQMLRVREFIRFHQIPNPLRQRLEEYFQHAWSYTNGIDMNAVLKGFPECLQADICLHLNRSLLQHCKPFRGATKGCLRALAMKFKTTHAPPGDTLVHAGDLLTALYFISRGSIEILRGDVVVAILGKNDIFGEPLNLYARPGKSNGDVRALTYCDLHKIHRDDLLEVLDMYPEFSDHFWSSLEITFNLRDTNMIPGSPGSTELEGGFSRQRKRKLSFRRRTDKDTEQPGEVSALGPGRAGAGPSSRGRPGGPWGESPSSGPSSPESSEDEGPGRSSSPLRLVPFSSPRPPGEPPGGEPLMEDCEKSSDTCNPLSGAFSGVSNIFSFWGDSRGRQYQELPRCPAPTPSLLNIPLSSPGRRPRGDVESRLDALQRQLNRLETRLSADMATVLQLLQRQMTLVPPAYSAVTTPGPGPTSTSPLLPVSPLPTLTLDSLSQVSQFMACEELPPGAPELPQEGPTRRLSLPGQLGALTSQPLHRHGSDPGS
Experiment: primary screen, population patch clamp on CHO cells stably expressing hERG; higher = less effect of the substance
Screen size: about 310,000 compounds; about 2,200 (0.71%) showed an effect of 50% or more. Effects have a minus sign here. Many of the other results were omitted from the sample, so strong results are more common in it than they were.
Give bare numbers, in %.

# COMPOUND, EXPERIMENTAL_VALUE
rows = [
    ("COC(=O)C(NC(C)=O)(Nc1ccc(Br)cn1)C(F)(F)F (stereo not shown)", 6.68),
    ("CCOC(=O)Nc1c(C(=O)OC)[nH]c2cc(OC)ccc12", -3.1),
    ("Cc1cccc(NS(=O)(=O)c2cccc([N+](=O)[O-])c2)n1", 13.7),
    ("Cc1ccc2cc(CN(Cc3ccco3)C(=O)C3CCCCC3)c(=O)[nH]c2c1C", 6.2),
]

Dear colleague, could you please provide hERG current change (%, negative = inhibition) at 1uM for the compounds listed below?
1. Cc1sc2nc(NCCO)[nH]c(=O)c2c1C
2. Cc1ccc(C(=O)/C=C\NCc2ccccc2)cc1
3. CC(C)(C)OC(=O)NCCCCCc1nnc(SCC(=O)Nc2cccc(Cl)c2)o1
4. Cc1cccnc1-n1c(C)nc2ccccc2c1=O
5. O=C(NC(NC(=S)Nc1ccccc1C(=O)O)C(Cl)(Cl)Cl)c1ccco1 (stereo not shown)
6. CCOc1ccc(NC(=S)N2CCC(NC(=O)c3ccccc3)CC2)cc1

Data returned:
14.6
7.27
-1.82
7.55
5.62
-3.48
